# target_under_test: androgen receptor (AR) (Homo sapiens, UniProt P10275)
# Sequence (P10275 whole entry): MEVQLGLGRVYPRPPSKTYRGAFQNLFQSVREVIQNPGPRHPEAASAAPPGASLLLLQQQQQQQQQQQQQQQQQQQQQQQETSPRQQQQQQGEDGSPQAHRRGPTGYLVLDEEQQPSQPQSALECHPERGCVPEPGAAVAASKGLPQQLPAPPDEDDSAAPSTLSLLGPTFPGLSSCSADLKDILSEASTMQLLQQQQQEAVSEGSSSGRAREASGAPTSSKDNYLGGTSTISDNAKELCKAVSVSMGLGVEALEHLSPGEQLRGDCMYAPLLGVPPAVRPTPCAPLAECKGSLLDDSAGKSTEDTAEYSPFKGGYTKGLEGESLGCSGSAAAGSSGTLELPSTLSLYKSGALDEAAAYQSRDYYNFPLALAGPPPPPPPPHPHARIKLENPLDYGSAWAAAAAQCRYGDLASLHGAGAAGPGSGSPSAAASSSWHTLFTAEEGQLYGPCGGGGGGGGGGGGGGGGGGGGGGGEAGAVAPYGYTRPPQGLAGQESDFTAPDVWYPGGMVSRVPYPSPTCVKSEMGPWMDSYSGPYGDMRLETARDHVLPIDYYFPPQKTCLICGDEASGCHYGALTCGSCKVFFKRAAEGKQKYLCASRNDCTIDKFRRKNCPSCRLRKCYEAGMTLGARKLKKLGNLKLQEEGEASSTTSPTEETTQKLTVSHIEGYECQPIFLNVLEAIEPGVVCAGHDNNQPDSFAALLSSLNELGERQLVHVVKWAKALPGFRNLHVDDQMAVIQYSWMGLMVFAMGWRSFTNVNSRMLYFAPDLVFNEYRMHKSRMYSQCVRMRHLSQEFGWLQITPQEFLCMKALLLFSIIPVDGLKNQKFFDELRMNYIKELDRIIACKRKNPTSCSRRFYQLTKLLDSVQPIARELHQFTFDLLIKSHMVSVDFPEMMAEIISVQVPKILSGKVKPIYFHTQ
# assay_comment: Degradation of androgen receptor (AR) protein in VCaP cells by ELISA
# Type: cell-based
# measurement_setup: read-out: DC50

compound | DC50
CC1(C)[C@H](Oc2ccc(C#N)c(Cl)c2)C(C)(C)[C@H]1N1Cc2nc(C#CC3CCC(N4CC5(CN(c6ccc7c(c6)C(=O)N([C@@H]6CCC(=O)NC6=O)C7=O)C5)C4)CC3)ccc2C1=O (stereo partly drawn) [Compound 351] | < 10 nM
N#Cc1ccc(OC2CCC(NC(=O)c3cn(C4CCC(CN5CCC6(CC5)CN(c5cc7c(cc5F)C(=O)N(C5CCC(=O)NC5=O)C7=O)C6)CC4)cn3)CC2)cc1Cl (stereo not drawn) | > 300 nM
CC1(C)[C@H](Oc2ccc(C#N)c(Cl)c2)C(C)(C)[C@H]1N1Cc2nc(C#CC3CCC(N4CC5(CN(c6ccc7c(c6)C(=O)N([C@@H]6CCC(=O)NC6=O)C7=O)C5)C4)CC3)ccc2C1=O (stereo partly drawn) [Compound 350] | 100 to 300 nM
N#Cc1ccc(OC2CCC(NC(=O)c3cnc(N4CCN(CC5[C@H]6CN(c7cc8c(cc7F)C(=O)N(C7CCC(=O)NC7=O)C8=O)C[C@@H]56)CC4)cn3)CC2)cc1C(F)(F)F (stereo partly drawn) | 10 to 100 nM
N#Cc1ccc(OC2CCC(NC(=O)c3cnc(N4CCN(CC5[C@H]6CN(c7cc8c(cc7F)C(=O)N(C7CCC(=O)NC7=O)C8=O)C[C@@H]56)CC4)nc3)CC2)cc1Cl (stereo partly drawn) | 10 to 100 nM
N#Cc1ccc(OC2CCC(NC(=O)c3ccc(N4CCN(CC5[C@H]6CN(c7cc8c(cc7F)C(=O)N(C7CCC(=O)NC7=O)C8=O)C[C@@H]56)CC4)nn3)CC2)cc1C(F)(F)F (stereo partly drawn) | 10 to 100 nM

---

# target_under_test: androgen receptor (AR) (Homo sapiens, UniProt P10275)
# assay_comment: Degradation of androgen receptor (AR) protein in VCaP cells by ELISA
# Format: cell-based
# measurement_setup: AR degradation, VCaP cells, 16 h, ELISA, Table 3-1; read-out: DC50
measured_attribute: DC50

molecule | endpoint_result
N#Cc1ccc(O[C@H]2CC[C@H](NC(=O)c3ncc(N4CCC(CN5CCC6(CC5)CN(c5ccc7c(c5)C(=O)N(C5CCC(=O)NC5=O)C7=O)C6)CC4)cn3)CC2)cc1Cl (stereo partly shown) | > 0.3 µM
N#Cc1ccc(O[C@H]2CC[C@H](NC(=O)c3cnn([C@H]4CC[C@H](CN5CCC6(CC5)CN(c5ccc7c(c5)C(=O)N(C5CCC(=O)NC5=O)C7=O)C6)CC4)c3)CC2)cc1Cl (stereo partly shown) | 0.01 to 0.1 µM
N#Cc1ccc(O[C@H]2CC[C@H](NC(=O)c3ccc(N4CC5(CN(C[C@@H]6[C@H]7CN(c8cc9c(cc8F)C(=O)N(C8CCC(=O)NC8=O)C9=O)C[C@@H]67)C5)C4)nn3)CC2)cc1Cl (stereo partly shown) | < 0.01 µM
N#Cc1ccc(O[C@H]2CC[C@H](NC(=O)c3cnc(N4CCC(CN5CCC6(CC5)CN(c5cc7c(cc5F)C(=O)N(C5CCC(=O)NC5=O)C7=O)C6)CC4)cn3)CC2)cc1Cl (stereo partly shown) | < 0.01 µM
N#Cc1ccc(O[C@H]2CC[C@H](NC(=O)c3cnc(N4CC5CC4CN5C[C@H]4[C@@H]5CN(c6cc7c(cc6F)C(=O)N(C6CCC(=O)NC6=O)C7=O)C[C@@H]54)cn3)CC2)cc1Cl (stereo partly shown) | 0.01 to 0.1 µM
CC1(C)[C@H](Oc2ccc(C#N)c(Cl)c2)C(C)(C)[C@H]1N1Cc2nc(C#CC3CC(N4CC5CN(c6cc7c(cc6F)C(=O)N(C6CCC(=O)NC6=O)C7=O)CC5C4)C3)ccc2C1=O (stereo partly shown) [Compound 360] | 0.01 to 0.1 µM
N#Cc1ccc(OC2CCC(NC(=O)c3cnc(N4CCN(C5CC6(CCN(c7ccc8c(c7)C(=O)N(C7CCC(=O)NC7=O)C8=O)CC6)C5)CC4)cn3)CC2)cc1Cl (stereo not shown) | < 0.01 µM
N#Cc1ccc(OC2CCC(NC(=O)c3ccc(N4CCC(CN5CCC6(CC5)CN(c5ccc7c(c5)CN(C5CCC(=O)NC5=O)C7=O)C6)CC4)nn3)CC2)cc1Cl (stereo not shown) | < 0.01 µM
CC1(C)[C@H](Oc2ccc(C#N)c(Cl)c2)C(C)(C)[C@H]1N1Cc2nc(C#C[C@H]3CC[C@H](N4CCN(c5ccc6c(c5)C(=O)N(C5CCC(=O)NC5=O)C6=O)CC4)CC3)ccc2C1=O (stereo partly shown) | < 0.01 µM
CC1(C)[C@H](Oc2ccc(C#N)c(Cl)c2)C(C)(C)[C@H]1N1Cc2nc(C#CC3CN(C4CN(c5cc6c(cc5F)C(=O)N(C5CCC(=O)NC5=O)C6=O)C4)C3)ccc2C1=O (stereo partly shown) | < 0.01 µM
N#Cc1ccc(O[C@H]2CC[C@H](NC(=O)c3ccc(N4CC5(CCN(CC6CCN(c7ccc8c(c7)C(=O)N(C7CCC(=O)NC7=O)C8=O)CC6)CC5)C4)nn3)CC2)cc1Cl (stereo partly shown) | < 0.01 µM
CC1(C)[C@H](Oc2ccc(C#N)c(Cl)c2)C(C)(C)[C@H]1N1Cc2nc(C#CC3CC(N4CC5CN(c6cc7c(cc6F)C(=O)N(C6CCC(=O)NC6=O)C7=O)CC5C4)C3)ccc2C1=O (stereo partly shown) [Compound 361] | 0.01 to 0.1 µM
C[C@@H]1CN(C[C@@H]2[C@H]3CN(c4cc5c(cc4F)C(=O)N(C4CCC(=O)NC4=O)C5=O)C[C@@H]23)CCN1c1cnc(C(=O)N[C@H]2CC[C@H](Oc3ccc(C#N)c(Cl)c3)CC2)cn1 (stereo partly shown) | 0.01 to 0.1 µM
N#Cc1ccc(O[C@H]2CC[C@H](NC(=O)c3cnc(N4CC5(CCN(CC6CCN(c7cc8c(cc7F)C(=O)N(C7CCC(=O)NC7=O)C8=O)CC6)C5)C4)cn3)CC2)cc1Cl (stereo partly shown) | < 0.01 µM
N#Cc1ccc(O[C@H]2CC[C@H](NC(=O)c3cnc(N4CCC(N5CCC6(CC5)CN(c5cc7c(cc5F)C(=O)N(C5CCC(=O)NC5=O)C7=O)C6)CC4)cn3)CC2)cc1Cl (stereo partly shown) | < 0.01 µM
N#Cc1ccc(O[C@H]2CC[C@H](NC(=O)c3ccc(N4CCN(C5CC6(CCN(c7cc8c(cc7F)C(=O)N(C7CCC(=O)NC7=O)C8=O)CC6)C5)CC4)nn3)CC2)cc1Cl (stereo partly shown) | < 0.01 µM
CC1(C)[C@H](Oc2ccc(C#N)c(Cl)c2)C(C)(C)[C@H]1N1Cc2nc(C#CC3CC(N4CC5CN(c6ccc7c(c6)C(=O)N(C6CCC(=O)NC6=O)C7=O)CC5C4)C3)ccc2C1=O (stereo partly shown) [Compound 358] | 0.01 to 0.1 µM
CN(C1CCN(c2ccc(C(=O)N[C@H]3CC[C@H](Oc4ccc(C#N)c(Cl)c4)CC3)nn2)CC1)C1CCN(c2cc3c(cc2F)C(=O)N(C2CCC(=O)NC2=O)C3=O)CC1 (stereo partly shown) | < 0.01 µM
CC1(C)[C@H](Oc2ccc(C#N)c(Cl)c2)C(C)(C)[C@H]1N1Cc2nc(C#CC3CCC(N4CCC5(CCN(c6cc7c(cc6F)C(=O)N(C6CCC(=O)NC6=O)C7=O)C5)C4)CC3)ccc2C1=O (stereo partly shown) [Compound 367] | 0.1 to 0.3 µM
